# target_entity: ATP7B N-domain (Nucleotide binding domain) (Homo sapiens, UniProt P35670, H1069Q)
# Construct: covalently immobilised on CM4 sensor chip
# procedure_text: surface plasmon resonance (BIAcore), protein immobilised on CM4 chip
# condition_description: read-out: Kd (μM) / ATP
quantity_name: Kd

Q. What does the data say about its Kd? Entry: Nc1ncnc2c1ncn2[C@@H]1O[C@H](COP(=O)(O)OP(=O)(O)OP(=O)(O)O)[C@@H](O)[C@H]1O
A. 76.5 µM

###

# target_entity: ATP7B N-domain (Nucleotide binding domain) (Homo sapiens, UniProt P35670, D1171A)
# Construct: covalently immobilised on CM4 sensor chip
# Sequence (P35670 1036-1196 D1171A): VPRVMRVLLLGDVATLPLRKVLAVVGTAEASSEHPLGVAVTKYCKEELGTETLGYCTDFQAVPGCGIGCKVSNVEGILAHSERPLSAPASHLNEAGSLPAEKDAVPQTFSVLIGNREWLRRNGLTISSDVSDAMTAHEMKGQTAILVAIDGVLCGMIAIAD
# procedure_text: surface plasmon resonance (BIAcore), protein immobilised on CM4 chip
# condition_description: read-out: Kd (μM) / ATP
quantity_name: Kd (µM)
Answers are plain numbers, in µM.

Q. Item Nc1ncnc2c1ncn2[C@@H]1O[C@H](COP(=O)(O)OP(=O)(O)OP(=O)(O)O)[C@@H](O)[C@H]1O [ATP] has what recorded Kd?
A. 81.1

###

# target_entity: ATP7B N-domain (Nucleotide binding domain) (Homo sapiens, UniProt P35670, DEL1121-1137)
# Construct: covalently immobilised on CM4 sensor chip
# procedure_text: surface plasmon resonance (BIAcore), protein immobilised on CM4 chip
# Description: surface plasmon resonance (BIAcore), protein immobilised on CM4 chip on ATP7B N-domain (Nucleotide binding domain)
pKd: −log10 of the molar value.
quantity_name: pKd

Q. Could you tell me which pKd is on file for Nc1ncnc2c1ncn2[C@@H]1O[C@H](COP(=O)(O)OP(=O)(O)OP(=O)(O)O)[C@@H](O)[C@H]1O ?
A. < 3.00

###

# target_entity: ATP7B N-domain (Nucleotide binding domain) (Homo sapiens, UniProt P35670, E1152A)
# Construct: covalently immobilised on CM4 sensor chip
# Sequence (P35670 1036-1196 E1152A): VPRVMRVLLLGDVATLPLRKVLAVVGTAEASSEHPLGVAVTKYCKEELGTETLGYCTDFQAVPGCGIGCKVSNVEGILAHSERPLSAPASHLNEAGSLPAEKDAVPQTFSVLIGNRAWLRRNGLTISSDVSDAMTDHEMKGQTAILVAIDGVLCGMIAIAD
# procedure_text: surface plasmon resonance (BIAcore), protein immobilised on CM4 chip
# condition_description: read-out: Kd (μM) / ATP
quantity_name: Kd (µM)
One number for each entry, in µM.

Q. What measured Kd is associated with Nc1ncnc2c1ncn2[C@@H]1O[C@H](COP(=O)(O)OP(=O)(O)OP(=O)(O)O)[C@@H](O)[C@H]1O on ATP7B N-domain (Nucleotide binding domain) (Homo sapiens, UniProt P35670, E1152A)?
A. 174

###

# target_entity: ATP7B N-domain (Nucleotide binding domain) (Homo sapiens, UniProt P35670, D1167A)
# Construct: covalently immobilised on CM4 sensor chip
# procedure_text: surface plasmon resonance (BIAcore), protein immobilised on CM4 chip
# condition_description: read-out: Kd (μM) / ATP
quantity_name: Kd (µM)
Numbers only, in µM.

Q. Entry Nc1ncnc2c1ncn2[C@@H]1O[C@H](COP(=O)(O)OP(=O)(O)OP(=O)(O)O)[C@@H](O)[C@H]1O has what Kd?
A. 96.9

###

# target_entity: ATP7B N-domain (Nucleotide binding domain) (Homo sapiens, UniProt P35670)
# Construct: covalently immobilised on CM4 sensor chip
# procedure_text: surface plasmon resonance (BIAcore), protein immobilised on CM4 chip
# condition_description: read-out: Kd (μM) / ATP
quantity_name: Kd
Give the value; after it, write the unit.

Q. State the recorded Kd for this entry: Nc1ncnc2c1ncn2[C@@H]1O[C@H](COP(=O)(O)OP(=O)(O)OP(=O)(O)O)[C@@H](O)[C@H]1O [ATP]
A. 74.2 µM

###

# target_entity: ATP7B N-domain (Nucleotide binding domain) (Homo sapiens, UniProt P35670, D1167A/D1171A/E1152A)
# Construct: covalently immobilised on CM4 sensor chip
# procedure_text: surface plasmon resonance (BIAcore), protein immobilised on CM4 chip
pKd: −log10 of the molar value.
quantity_name: pKd

Q. Sample Nc1ncnc2c1ncn2[C@@H]1O[C@H](COP(=O)(O)OP(=O)(O)OP(=O)(O)O)[C@@H](O)[C@H]1O — what was its pKd?
A. < 3.00

###

# target_entity: ATP7B N-domain (Nucleotide binding domain) (Homo sapiens, UniProt P35670, N1150A)
# Construct: covalently immobilised on CM4 sensor chip
# Sequence (P35670 1036-1196 N1150A): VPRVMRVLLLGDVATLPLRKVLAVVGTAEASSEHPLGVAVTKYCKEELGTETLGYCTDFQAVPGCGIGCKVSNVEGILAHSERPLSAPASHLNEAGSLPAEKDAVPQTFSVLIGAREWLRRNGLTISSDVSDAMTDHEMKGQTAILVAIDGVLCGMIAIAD
# procedure_text: surface plasmon resonance (BIAcore), protein immobilised on CM4 chip
# condition_description: read-out: Kd (μM) / ATP
quantity_name: Kd (µM)
One number for each entry, in µM.

Q. State its Kd on ATP7B N-domain (Nucleotide binding domain) (Homo sapiens, UniProt P35670, N1150A): Nc1ncnc2c1ncn2[C@@H]1O[C@H](COP(=O)(O)OP(=O)(O)OP(=O)(O)O)[C@@H](O)[C@H]1O
A. 82.7

The measurements presented in this section are drawn from paper PMC3203118.
